experimental_system: recombinant ICL from C. albicans ATCC 10231 (Candida albicans)
Construct: thioredoxin (fusion partner of the pBAD/Thio-TOPO vector); made in house; host or cells: Escherichia coli TOP10
Sequence (Q9P8Q7 whole entry, the tested form may be a part): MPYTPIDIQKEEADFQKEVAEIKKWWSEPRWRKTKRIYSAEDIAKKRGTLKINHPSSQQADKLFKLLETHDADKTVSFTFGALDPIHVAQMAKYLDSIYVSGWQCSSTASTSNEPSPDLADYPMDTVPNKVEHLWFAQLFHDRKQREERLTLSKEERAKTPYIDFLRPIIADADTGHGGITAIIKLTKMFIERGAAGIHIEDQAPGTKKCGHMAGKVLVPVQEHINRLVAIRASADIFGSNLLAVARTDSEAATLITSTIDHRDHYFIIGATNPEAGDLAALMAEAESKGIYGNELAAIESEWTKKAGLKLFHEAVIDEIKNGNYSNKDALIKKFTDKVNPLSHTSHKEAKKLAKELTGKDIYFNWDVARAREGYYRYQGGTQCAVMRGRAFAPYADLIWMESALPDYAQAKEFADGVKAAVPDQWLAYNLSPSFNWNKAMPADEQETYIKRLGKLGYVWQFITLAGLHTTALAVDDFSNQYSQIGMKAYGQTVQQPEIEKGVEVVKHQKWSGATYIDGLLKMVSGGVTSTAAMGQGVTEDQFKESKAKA
test_description: biochemical
condition_label: read-out: ICL IC50
endpoint_label: pIC50
Give bare numbers, as −log10 of the molar value.

Ask | Dear colleague, I am looking for the recorded pIC50 of the following compound: CC1(C)CCC[C@]2(C)[C@H]3CC/C(=C\OS(=O)(=O)[O-])[C@H](CCc4ccoc4)[C@@]3(C)CC[C@@H]12.C[N+](C)=C(N)N [Compound 1, suvanine salt]
Reply | 4.65
